The values you see were collected from patent US6620828B2.

Molecular target: phosphorylated VEGF-R2Δ50 (FLVK-P) (Homo sapiens, UniProt P35968, DEL940-989/E990V)
Construct: VEGF-R2Δ50 contains residues 806-939 and 990-1171; made in house; host or cells: baculovirus/insect cells
Sequence (P35968 with tags, fused parts or gaps DEL940-989/E990V limits assumed): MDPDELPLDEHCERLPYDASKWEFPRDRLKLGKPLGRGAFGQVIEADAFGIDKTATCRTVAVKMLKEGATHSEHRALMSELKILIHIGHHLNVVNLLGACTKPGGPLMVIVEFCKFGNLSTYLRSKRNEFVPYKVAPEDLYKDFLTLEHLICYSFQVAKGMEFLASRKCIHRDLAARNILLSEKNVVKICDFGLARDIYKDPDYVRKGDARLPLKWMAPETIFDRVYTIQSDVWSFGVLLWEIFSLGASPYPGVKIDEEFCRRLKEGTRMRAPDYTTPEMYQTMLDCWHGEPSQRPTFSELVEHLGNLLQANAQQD
Test: VEGF-R2 coupled spectrophotometric (FLVK-P) assay
Type: biochemical
Details: 20 μM; combinatorial library compounds
readout name: VEGF % inhibition at 20 μM (%)

Field: example entries. Status: answers known.
compound="CN(C)c1ccc(Nc2nc(N)c(-c3nc(-c4ccccc4)cs3)s2)cc1 [drawing 561]" readout_name="VEGF % inhibition at 20 μM" units_of_measure=% numeric_value=30
compound="COc1ccc(-c2csc(-c3sc(Nc4ccc(S(N)(=O)=O)cc4)nc3N)n2)cc1 [drawing 425]" readout_name="VEGF % inhibition at 20 μM" units_of_measure=% numeric_value=11
compound="COc1ccc(-c2csc(-c3sc(Nc4ccc(N(C)C)cc4)nc3N)n2)cc1 [drawing 551]" readout_name="VEGF % inhibition at 20 μM" units_of_measure=% numeric_value=23

[I] Cc1c(-c2csc(-c3sc(Nc4ccc(N(C)C)cc4)nc3N)n2)sc2ccc(Cl)cc12 [drawing 552]
[II] CC(C)c1ccc(Nc2nc(N)c(-c3nc(-c4ccccc4)cs3)s2)cc1 [drawing 484]
[III] COc1ccc(-c2csc(-c3sc(Nc4ccc(C(C)C)cc4)nc3N)n2)cc1 [drawing 488]
[IV] Cc1c(-c2csc(-c3sc(Nc4ccc(S(N)(=O)=O)cc4)nc3N)n2)sc2ccc(Cl)cc12 [drawing 426]
[V] Cc1c(-c2csc(-c3sc(Nc4ccc(C(C)C)cc4)nc3N)n2)sc2ccc(Cl)cc12 [drawing 489]
q: Arrange the 5 compounds from largest to smallest VEGF % inhibition at 20 μM. Dear reader, please state the labels in the requested order.
a: V, I, IV, III, II

* * *

readout name: melting point

mol_smiles=COc1cc(Nc2nc(N)c(-c3nc(-c4ccc(O)cc4)cs3)s2)cc(OC)c1OC result="129 to 133 °C (dec.)"

q: Please give the measured melting point for this compound: Nc1nc(Nc2ccc(S(N)(=O)=O)cc2)sc1-c1nc(/C=C/c2ccccc2)cs1
a: 140 to 143 °C (dec.)

q: Name the recorded melting point for COc1ccccc1-c1csc(-c2sc(Nc3ccc(S(N)(=O)=O)cc3)nc2N)n1 .
a: 231 to 235 °C (dec.)

q: # get_value(readout='melting point', item= COc1cc(Nc2nc(N)c(-c3nc(-c4ccc(O)c(O)c4)cs3)s2)cc(OC)c1OC )
a: 132 to 137 °C (dec.)

q: Reported melting point for Nc1nc(Nc2ccc(S(N)(=O)=O)cc2)sc1-c1nc(-c2cc(O)cc(OCc3ccccc3)c2)cs1 : what is it?
a: 185 to 187 °C (dec.)

* * *

Biological target: CDK2/Cyclin A complex (Homo sapiens, UniProt P24941)
Experiment: CDK2/Cyclin A assay
Type: biochemical
Parameters: concentration or dose not given beside the values
Conditions: Table A combinatorial examples; footnote c not given
readout name: CDK2^c

molecule=COc1cc(Nc2nc(N)c(-c3nc(-c4cc(C)c(O)c(C)c4)cs3)s2)cc(OC)c1OC numeric_value=28.4

[a] COc1cc(Nc2nc(N)c(-c3nc(-c4ccc(F)cc4)cs3)s2)cc(OC)c1OC
[b] COc1cc(Nc2nc(N)c(-c3nc(-c4ccc(Cl)cc4)cs3)s2)cc(OC)c1OC
q: Higher CDK2^c: a or b ? The response must carry the label of the picked entry.
a: a
(a: 35, b: 0.1)

[1] COc1cc(Nc2nc(N)c(-c3nc(-c4cccc([N+](=O)[O-])c4)cs3)s2)cc(OC)c1OC
[2] COc1cc(Nc2nc(N)c(-c3nc(-c4ccc(O)c(O)c4)cs3)s2)cc(OC)c1OC [drawing 325]
q: Look at 1 and 2 . Which one has the lower recorded CDK2^c number? Give the label of your selection.
a: 2

* * *

Molecular target: CDK4/Cyclin D3 complex (Homo sapiens)
Construct: made in house; host or cells: insect cells co-infected with baculovirus vectors
Sequence (P11802 whole entry): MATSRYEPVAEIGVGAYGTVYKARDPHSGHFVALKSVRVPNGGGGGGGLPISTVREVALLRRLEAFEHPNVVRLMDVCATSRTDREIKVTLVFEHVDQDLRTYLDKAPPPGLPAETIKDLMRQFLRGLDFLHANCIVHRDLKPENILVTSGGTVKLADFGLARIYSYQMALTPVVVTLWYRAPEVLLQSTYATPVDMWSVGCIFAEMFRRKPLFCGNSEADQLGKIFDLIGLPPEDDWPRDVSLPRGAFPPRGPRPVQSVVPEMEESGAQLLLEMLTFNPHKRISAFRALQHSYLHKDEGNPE
Sequence (P30281 whole entry partner): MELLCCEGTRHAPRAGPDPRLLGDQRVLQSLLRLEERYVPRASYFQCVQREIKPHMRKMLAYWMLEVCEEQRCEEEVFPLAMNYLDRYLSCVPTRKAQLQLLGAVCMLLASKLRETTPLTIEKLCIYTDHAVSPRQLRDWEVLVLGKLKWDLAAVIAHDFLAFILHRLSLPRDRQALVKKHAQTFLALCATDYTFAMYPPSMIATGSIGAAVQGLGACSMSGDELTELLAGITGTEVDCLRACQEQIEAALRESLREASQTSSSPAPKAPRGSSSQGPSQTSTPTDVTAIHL
Test: CDK4/Cyclin D assay
Format: biochemical
Conditions: Table 2; at 100 (printed 100 or 100 μM)
Each entry below carries its reported inhibition at 100 µM.

Completed entries (count: 4):
compound="COc1cc(Nc2nc(N)c(C3=NC(CC(C)C)CO3)s2)cc(OC)c1OC (stereo not drawn)" result="< 0%"
compound="Nc1nc(Nc2ccc(S(N)(=O)=O)cc2)sc1C1=NC(c2ccccc2)CO1 (stereo not drawn)" result=47%
compound=Nc1nc(Nc2ccc(S(N)(=O)=O)cc2)sc1-c1nccn1Cc1ccc(Cl)cc1 result=31%
compound=COc1cc(Nc2nc(N)c(-c3nn[nH]n3)s2)cc(OC)c1OC result="< 0%"

q: Could you tell me which inhibition at 100 µM is on file for COc1cc(Nc2nc(N)c(C3=NC(C(C)OCc4ccccc4)CO3)s2)cc(OC)c1OC (stereo not drawn) ?
a: < 0%

q: Fill in the blank: the reported inhibition at 100 µM of CCOC(=O)c1nc(-c2sc(Nc3ccc(S(N)(=O)=O)cc3)nc2N)sc1Cc1ccccc1 is ____.
a: < 0%

* * *

Target: FL-CHK1 (Homo sapiens, UniProt O14757)
Construct: C-terminally His-tagged full-length human CHK1 (FL-CHK1); 6xHis (C); made in house; host or cells: baculovirus/insect cells
Sequence (O14757 whole entry): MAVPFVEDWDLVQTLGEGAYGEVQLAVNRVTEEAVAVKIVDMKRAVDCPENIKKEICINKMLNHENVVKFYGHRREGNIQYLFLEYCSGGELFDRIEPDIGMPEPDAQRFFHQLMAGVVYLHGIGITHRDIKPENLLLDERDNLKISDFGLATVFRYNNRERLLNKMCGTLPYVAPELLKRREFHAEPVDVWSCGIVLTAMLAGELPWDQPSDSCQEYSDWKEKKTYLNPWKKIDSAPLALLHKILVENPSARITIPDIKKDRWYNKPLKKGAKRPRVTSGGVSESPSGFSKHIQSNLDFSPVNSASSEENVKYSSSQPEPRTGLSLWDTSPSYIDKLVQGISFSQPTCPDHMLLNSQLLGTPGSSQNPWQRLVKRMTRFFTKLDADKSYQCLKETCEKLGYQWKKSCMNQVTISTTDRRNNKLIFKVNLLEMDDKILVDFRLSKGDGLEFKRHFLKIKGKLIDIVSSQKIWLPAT
Assay: CHK1 assay
Type: biochemical
Settings: 20 μM; combinatorial library compounds
From the text: CHK-1 Construct for Assay: C-terminally His-tagged full-length human CHK1 (FL-CHK1) was expressed using the baculovirus/insect cell system. It contains 6 histidine residues (6×His-tag) at the C-terminus of the 476 amino acid human CHK1. The protein was purified by conventional chromatographic techniques. […]
readout name: inhibition at 20 µM (%)

See these solved cases before continuing.
compound=CN(C)c1ccc(Nc2nc(N)c(-c3nc(-c4ccc(OC(=O)c5ccccc5)cc4)cs3)s2)cc1 readout_name="inhibition at 20 µM" units_of_measure=% numeric_value=5.5
compound=Cc1cc(-c2csc(-c3sc(Nc4ccc(N(C)C)cc4)nc3N)n2)c(C)s1 readout_name="inhibition at 20 µM" units_of_measure=% numeric_value=43.9
compound=CCOC(=O)c1cc(-c2csc(-c3sc(Nc4ccc(S(N)(=O)=O)cc4)nc3N)n2)on1 readout_name="inhibition at 20 µM" units_of_measure=% numeric_value=1.1
compound=COc1ccc2nc(-c3ccccc3)c(-c3csc(-c4sc(Nc5ccc(C(C)C)cc5)nc4N)n3)cc2c1 readout_name="inhibition at 20 µM" units_of_measure=% numeric_value=14.1
compound=CC(C)c1ccc(Nc2nc(N)c(-c3nc(-c4ccc5oc6ccccc6c5c4)cs3)s2)cc1 readout_name="inhibition at 20 µM" units_of_measure=% numeric_value=18.9

[1] CN(C)c1ccc(Nc2nc(N)c(-c3nc(-c4ccc(CC(=O)O)s4)cs3)s2)cc1
[2] COc1ccccc1-c1csc(-c2sc(Nc3ccc(S(N)(=O)=O)cc3)nc2N)n1 [drawing 394]
q: Between the entries labelled 1 and 2 , which has a larger inhibition at 20 µM value on record? Lab note: record the label of whichever item you select.
a: 1

[a] Nc1nc(Nc2ccc(S(N)(=O)=O)cc2)sc1-c1nc(-c2ccc(OC(=O)c3ccccc3)cc2)cs1
[b] CN(C)c1ccc(Nc2nc(N)c(-c3nc(-c4ccc5oc6ccccc6c5c4)cs3)s2)cc1
q: a or b : whose inhibition at 20 µM is greater? Indicate which entry you chose by stating its label.
a: b

* * *

Target: phosphorylated VEGF-R2Δ50 (FLVK-P) (Homo sapiens, UniProt P35968, DEL940-989/E990V)
Construct: VEGF-R2Δ50 contains residues 806-939 and 990-1171; made in house; host or cells: baculovirus/insect cells
Test: VEGF-R2 coupled spectrophotometric (FLVK-P) assay
Assay type: biochemical
Conditions: Table 3; at 50 nM
Where a name gives a salt, the structure may show the parent alone.
readout name: inhibition at 0.05 µM (%)

molecule="COc1cccc(C(=O)Nc2cc(-c3noc(-c4sc(Nc5cc(OC)c(OC)c(OC)c5)nc4N)n3)c(Cl)cc2F)c1 [D(70), TFA salt]" readout_name="inhibition at 0.05 µM" numeric_value=91

[a] COc1cc(Nc2nc(N)c(-c3nc(-c4cc(NC(=O)OC(C)(C)C)c(F)cc4Cl)no3)s2)cc(OC)c1OC [B(14)]
[b] COc1cccc(C(=O)Nc2ccc(C)c(-c3noc(-c4sc(Nc5cc(OC)c(OC)c(OC)c5)nc4N)n3)c2)c1 [D(74)]
[c] CC[C@H](CO)NC(=O)Nc1nc(N)c(-c2nc(-c3cc(NC(=O)c4cccc(OC)c4)c(F)cc3F)cs2)s1 [O(21)]
q: Arrange these molecules by their inhibition at 0.05 µM, starting with the largest number. Give your ranking as a list of the labels in the requested order.
a: b, c, a
(b: 91%, c: 61%, a: 13%)
